- assay text: gradient 5% acetonitrile 3 min, to 50% in 2 min, to 85% in 15 min, held 3 min, 100 µL/min
- experimental conditions: column: Zorbax Extend-C18 2.1 x 50 mm; eluents: water / acetonitrile, 0.1% formic acid
# if value of RP-LC retention time reaches 700 s, tag YES; if it stays below, tag NO

Some solved cases for reference:
Cc1cc(NC(=O)CSc2nnc(NC(=O)c3snnc3C)s2)no1    NO
N#Cc1ccc(C(=O)Nc2cccc(-c3nnc4n3CCCC4)c2)cc1    NO
Cc1nnc2c(=O)n(CC(=O)NCCN3CCc4ccccc4C3)c3cccnc3n12    YES
CN(C)CCNC(=O)c1ccc(CS(=O)Cc2ccccc2Cl)o1 (stereo not given)    NO
CCn1c(=O)c(C)nc2cc(C(=O)NCCc3c[nH]c4ccc(Cl)cc34)ccc21    YES

Prompt line: API: above_or_equal(metric=RP-LC retention time, cutoff=700 s) for item CCn1nccc1C(=O)Nc1ccc2c(c1)CCC(=O)N2C
Response line: NO

Prompt line: API: above_or_equal(metric=RP-LC retention time, cutoff=700 s) for item CC(=O)N1CCc2cc(N3CC(C(=O)Nc4ccc(N5CCOCC5)cc4)CC3=O)ccc21 (stereo not given)
Response line: NO

Prompt line: API: above_or_equal(metric=RP-LC retention time, cutoff=700 s) for item Cn1cnc2c(C(=O)Nc3ccccc3)nn(-c3ccccc3)c2c1=O
Response line: YES

----------
- assay text: gradient 5% acetonitrile 3 min, to 50% in 2 min, to 85% in 15 min, held 3 min, 100 µL/min
- experimental conditions: column: Zorbax Extend-C18 2.1 x 50 mm; eluents: water / acetonitrile, 0.1% formic acid
# if value of RP-LC retention time reaches 700 s, tag class 1; if it stays below, tag class 0

Some solved cases for reference:
FC(F)(F)c1ccc(C2CNCCO2)cc1 (stereo not given)    class 0
O=C(c1cc(-c2ccncc2)n[nH]1)N1CCCC(C(=O)N2CCN(C(=O)c3ccco3)CC2)C1 (stereo not given)    class 0
COC(=O)CNC(=O)c1cc2c(=O)n(C)c3ccccc3n2n1    class 0
O=C(NCCN1CCCCC1)C1CCc2sc(C(=O)N3CCOCC3)cc2C1 (stereo not given)    class 0

Prompt line: API: above_or_equal(metric=RP-LC retention time, cutoff=700 s) for item N#Cc1ccc(C(=O)N2CCC(CCOCC3CC3)CC2)cc1
Response line: class 1

----------
- assay text: gradient 5% acetonitrile 3 min, to 50% in 2 min, to 85% in 15 min, held 3 min, 100 µL/min
- experimental conditions: column: Zorbax Extend-C18 2.1 x 50 mm; eluents: water / acetonitrile, 0.1% formic acid
measurement type: RP-LC retention time (s)
Write the number in s without appending the unit.

Illustrative cases are given below, each with its answer.
Cc1ccccc1-c1nc(C)c(C(=O)NC2CC2)s1    863
CCCC(=O)n1nc(C)c(S(=O)(=O)N2CCOCC2)c1C    954
CNC(=O)C1CN(C(=O)Cc2c[nH]c3ccccc23)CC12CCCC2 (stereo not given)    596
O=C(c1sc2ncccc2c1-n1cccc1)N1CCSCC1    842
Cc1nc2ccc(NC(=O)c3ccc(Cn4ccnc4)cc3)cc2s1    565

Prompt line: Entry COc1ccc(N2CCN(c3cc(SCC(=O)Nc4ccc(F)cc4F)ncn3)CC2)cc1 has what RP-LC retention time?
Response line: 1050

Prompt line: Entry CCOC(=O)c1c(S(=O)(=O)N2CCC(C(=O)NCc3cccc(C)c3)CC2)c(C)n(CC)c1C has what RP-LC retention time?
Response line: 975

Prompt line: Entry CCC(=O)N1CCc2cc(N3CC(C(=O)Nc4cc(C)ccc4C)CC3=O)ccc21 (stereo not given) has what RP-LC retention time?
Response line: 790

Prompt line: Entry CCOC(=O)c1[nH]c(C)c(CCC(=O)N2CCC(C(=O)NCCCN3CCCC3=O)CC2)c1C has what RP-LC retention time?
Response line: 626

----------
- assay text: gradient 5% acetonitrile 3 min, to 50% in 2 min, to 85% in 15 min, held 3 min, 100 µL/min
- experimental conditions: column: Zorbax Extend-C18 2.1 x 50 mm; eluents: water / acetonitrile, 0.1% formic acid
RP-LC retention time under 700 s gets 1, anything at or over 700 s gets -1.

Prompt line: Input CCN1C(=O)c2ccccc2Oc2ccc(C(=O)NCc3cccc(OC)c3)cc21 ; condition: RP-LC retention time strictly below 700 s. Does it hold?
Response line: -1

Prompt line: Input O=C(NCc1ccccc1)NCC1Cn2cccc2C(=O)N1Cc1ccccc1 (stereo not drawn) ; condition: RP-LC retention time strictly below 700 s. Does it hold?
Response line: -1

----------
- assay text: gradient 5% acetonitrile 3 min, to 50% in 2 min, to 85% in 15 min, held 3 min, 100 µL/min
- experimental conditions: column: Zorbax Extend-C18 2.1 x 50 mm; eluents: water / acetonitrile, 0.1% formic acid
Recorded RP-LC retention time values for a group of compounds are listed next.
Write the number in s without appending the unit.

CSc1cccc(NC(=O)N2CCC[C@@H]2C(=O)NCc2csc(-c3ccccc3)n2)c1    888
COc1ccc(C(=O)N2CC(n3cc(COCC4CC4)nn3)C2)cn1    679
CC(NC(=O)C1CCCN(c2nc3ccsc3c(=O)n2Cc2ccccc2)C1)c1ccc(F)cc1 (stereo not given)    951
O=C(C1CCN(c2cnc3nccnc3c2)CC1)N1CCC(Cc2ccccc2)CC1    889
Cc1ccc(Nc2nc(-c3ccc4c(c3)OCO4)cs2)nc1    863
CC(=O)c1cccc(NC(=O)CCc2c(C)nn(-c3cc(N4CCCC4)ncn3)c2C)c1    765
CCC(C)NC(=O)c1ccc2c(c1)Sc1ncccc1C(=O)N2CC (stereo not given)    749
CCC1CN(C(=O)N2CCC(C(=O)NCCCN3CCN(C)CC3)CC2)c2ccccc2O1 (stereo not given)    592

Prompt line: Entry Cc1cc2nn(CC(=O)Nc3ccccc3F)c(=O)n2c(Nc2ccc(F)cc2)n1 has what RP-LC retention time?
Response line: 967

Prompt line: Entry N#Cc1cccc(S(=O)(=O)N2CCC(c3cc(N)on3)CC2)c1 has what RP-LC retention time?
Response line: 743

Prompt line: Entry CN(Cc1ccccc1)C(=O)C1CCCN(c2ncnc3c2nc2n3CCCCC2)C1 (stereo not given) has what RP-LC retention time?
Response line: 758

Prompt line: Entry O=C(Cc1ccsc1)N1CCn2c(nnc2-c2ccccc2)C1 has what RP-LC retention time?
Response line: 671

----------
Recorded RP-LC retention time values for a group of molecules are listed next.
- assay text: gradient 5% acetonitrile 3 min, to 50% in 2 min, to 85% in 15 min, held 3 min, 100 µL/min
- experimental conditions: column: Zorbax Extend-C18 2.1 x 50 mm; eluents: water / acetonitrile, 0.1% formic acid
Write the number in s without appending the unit.

Illustrative cases are given below, each with its answer.
COc1ccc(NC(=O)C2(C)Oc3cccnc3N(C(C)C)C2=O)cc1 (stereo not given)    918
O=C(c1ccccc1Br)N(Cc1cccc(Cl)c1)C1CCS(=O)(=O)C1 (stereo not given)    846
COC(=O)C1CCN(C(=O)Cc2csc(Nc3ccc(F)cc3)n2)CC1    689
CCCC(=O)Nc1ccc2c(c1)CC(C(=O)NCC(=O)OC)CO2 (stereo not given)    650
CCOc1ccc(-c2noc(Cc3nnc(-c4cccc(Br)c4)o3)n2)cc1    1160

Prompt line: Entry O=C(Cn1nc(C(=O)N2CCOCC2)c2ccccc21)Nc1ccc(F)cc1F has what RP-LC retention time?
Response line: 732

Prompt line: Entry Cn1nc(CNC(=O)c2ccc(Br)cc2)c2ccccc21 has what RP-LC retention time?
Response line: 840

Prompt line: Entry Cc1ccc(-c2ccc(CNc3ncn[nH]3)o2)cc1Cl has what RP-LC retention time?
Response line: 731

Prompt line: Entry O=C(Nc1cc(-c2ccsc2)no1)C1CCCC1 has what RP-LC retention time?
Response line: 918

Prompt line: Entry CCOc1ccc(C(=O)N2CCC3(CC2)NC(=O)c2cc(F)ccc2N3C)cc1 has what RP-LC retention time?
Response line: 767

Prompt line: Entry Cc1c(NC(=O)Cc2csc(NC(=O)C(C)(C)C)n2)c(=O)n(-c2ccccc2)n1C has what RP-LC retention time?
Response line: 630

----------
Recorded RP-LC retention time values for a group of molecules are listed next.
- assay text: gradient 5% acetonitrile 3 min, to 50% in 2 min, to 85% in 15 min, held 3 min, 100 µL/min
- experimental conditions: column: Zorbax Extend-C18 2.1 x 50 mm; eluents: water / acetonitrile, 0.1% formic acid
Write the number in s without appending the unit.

Illustrative cases are given below, each with its answer.
CCOc1ccc(CNC(=O)C2CCCN(c3ccc(=O)n(-c4ccc(F)cc4)n3)C2)cc1 (centres undefined)    869
CCOCCCNC(=O)Cn1nc(C)c2nn(-c3ccc(Cl)cc3)c(-n3cccc3)c2c1=O    898

Prompt line: Entry CC(C)CCN1CCc2[nH]nc(C(=O)N(C)C)c2C1 has what RP-LC retention time?
Response line: 575

Prompt line: Entry Cc1nccn1C1CN(S(=O)(=O)c2cccc3cccnc23)C1 has what RP-LC retention time?
Response line: 571

Prompt line: Entry Cn1c(Cn2c(=O)sc3ccccc32)nnc1SCC(=O)NCC1CCCO1 (centres undefined) has what RP-LC retention time?
Response line: 608

Prompt line: Entry CCOc1ccc(-c2cc(C(=O)N3CCN(c4ccccn4)CC3)c3ccccc3n2)cc1 has what RP-LC retention time?
Response line: 726

Prompt line: Entry CCN1CCN(c2cc(C(=O)O)c3cc(NS(=O)(=O)c4cc(C)c(C)cc4C)ccc3n2)CC1 has what RP-LC retention time?
Response line: 629

Prompt line: Entry O=S(=O)(NC1CCCCCC1)c1ccc(-c2cc(C(F)(F)F)on2)o1 has what RP-LC retention time?
Response line: 1170

Prompt line: Entry COc1ccc(C(O)Cn2ccn3nc(-c4cccs4)cc3c2=O)cc1 (centres undefined) has what RP-LC retention time?
Response line: 848

Prompt line: Entry CCOC(=O)c1ccc(NC(=O)C2CCCN(c3ncnc4c3nc3n4CCCCC3)C2)cc1 (centres undefined) has what RP-LC retention time?
Response line: 873

Prompt line: Entry CCn1cnc(S(=O)(=O)N2CCC(C(=O)N3CCN(c4cccc(Cl)c4)CC3)CC2)c1 has what RP-LC retention time?
Response line: 825

Prompt line: Entry Cc1ccccc1CN1CCN(CC(=O)NC2CCN(Cc3ccccc3)CC2)C(=O)C1=O has what RP-LC retention time?
Response line: 633

Prompt line: Entry FCCN(CCF)c1cccc(Cl)c1 has what RP-LC retention time?
Response line: 1060

Prompt line: Entry COc1ncc(-c2ccc3nccc(-c4ccnnc4)c3c2)cc1NS(=O)(=O)c1ccc(F)cc1F has what RP-LC retention time?
Response line: 785

Prompt line: Entry O=C(Nc1nnc(C2CC(=O)N(c3ccccc3)C2)o1)c1ccc(Br)cc1 (centres undefined) has what RP-LC retention time?
Response line: 766

Prompt line: Entry O=C(C1CC=CCC1)N1CCCC(COCc2ccccc2)C1 (centres undefined) has what RP-LC retention time?
Response line: 979

Prompt line: Entry CCn1c(=O)c2ccccc2n(Cc2nc(-c3cc(OC)c(OC)c(OC)c3)no2)c1=O has what RP-LC retention time?
Response line: 936

Prompt line: Entry CC(=O)N1CCc2cc(N3CC(C(=O)Nc4ccccc4)CC3=O)ccc21 (centres undefined) has what RP-LC retention time?
Response line: 677

Prompt line: Entry CCOc1ccc(OCC)c(NC(=O)CCc2c(-c3ccc(Cl)cc3)nc3ccccn23)c1 has what RP-LC retention time?
Response line: 788

Where do these numbers come from? They come from the METLIN SMRT retention time set (Domingo-Almenara et al. 2019).
